assay.details: Negative allosteric modulator activity at human P-gp I1115E mutant expressed in HEK293FT cells assessed as reversal of P-gp mediated PTX resistance by measuring paclitaxel IC50 incubated for 5 days by MTS assay (Rvb = 7.4 +/- 0.8 nM)
quantity.kind: pIC50
Expect pIC50 as a plain number equal to -log10 of the molar concentration.

Which pIC50 value is on record for `O=c1cc(-c2ccc(OCCOCCNCc3ccccc3)cc2)oc2ccccc12` ?
8.12

----------
assay.details: Negative allosteric modulator activity at human P-gp T1226Y mutant expressed in HEK293FT cells assessed as reversal of P-gp mediated PTX resistance by measuring paclitaxel IC50 incubated for 5 days by MTS assay (Rvb = 449.3 +/- 31.2 nM)
quantity.kind: pIC50
Please report pIC50 as the negative decimal logarithm of the molar concentration, giving only the number.

Quick check: pIC50 of `O=c1cc(-c2ccc(OCCOCCNCc3ccccc3)cc2)oc2ccccc12` ?
8.14

----------
assay.details: Negative allosteric modulator activity at human P-gp T1226W mutant expressed in HEK293FT cells assessed as reversal of P-gp mediated PTX resistance by measuring paclitaxel IC50 incubated for 5 days by MTS assay (Rvb = 363.5 +/- 24.9 nM)
quantity.kind: IC50 (nM)
Please respond with the number in nM and leave the unit unwritten.

Give the measured IC50 of `O=c1cc(-c2ccc(OCCOCCNCc3ccccc3)cc2)oc2ccccc12` .
6.4

----------
assay.details: Negative allosteric modulator activity at P-gp in human LCC6MDR cells overexpressing P-gp assessed as reversal of P-gp mediated PTX resistance by measuring paclitaxel IC50 incubated for 5 days by MTS assay
The entries below come with measured IC50 values attached.
The answer is to be given in µM; state only the numeric part.

Below, each entry is followed by its recorded IC50 result.
- O=c1cc(-c2ccc(OCCOCCNCc3ccccc3)cc2)oc2ccccc12: 0.0038
- O=c1cc(-c2ccc(OCCOCCNCc3ccc(C4(C(F)(F)F)N=N4)cc3)cc2)oc2ccccc12: 0.0023
- C#CCOc1cccc2oc(-c3ccc(OCCOCCNCc4ccc(C5(C(F)(F)F)N=N5)cc4)cc3)cc(=O)c12: 0.0014

Which IC50 reading was recorded for the compound `C#CCN(CCOCCOc1ccc(-c2cc(=O)c3ccccc3o2)cc1)Cc1ccc(C2(C(F)(F)F)N=N2)cc1` ?
0.057

Follow-up item: `[N-]=[N+]=NCc1cc(CNCCOCCOc2ccc(-c3cc(=O)c4ccccc4o3)cc2)cc(N=[N+]=[N-])c1`
0.0021

Here is the next compound: `C#CCNc1cc(C)cc2c(=O)cc(-c3ccc(OCCOCCNCc4ccc(C5(C(F)(F)F)N=N5)cc4)cc3)oc12`
0.28

Would you mind doing `C#CCNc1cc(C)cc2c(=O)cc(-c3ccc(OCCOCCN(Cc4ccc(C5(C(F)(F)F)N=N5)cc4)Cc4ccc(C5(C(F)(F)F)N=N5)cc4)cc3)oc12` as well?
0.312

One more compound: `O=c1cc(-c2ccc(OCCOCCN(Cc3ccc(C4(C(F)(F)F)N=N4)cc3)Cc3ccc(C4(C(F)(F)F)N=N4)cc3)cc2)oc2ccccc12`
0.158

----------
assay.details: Negative allosteric modulator activity at human P-gp Q1193F mutant expressed in HEK293FT cells assessed as reversal of P-gp mediated PTX resistance by measuring paclitaxel IC50 incubated for 5 days by MTS assay (Rvb = 453.6 +/- 14.8 nM)
quantity.kind: pIC50
Lab note — pIC50 values are minus log10 of concentrations in M.

Query: pIC50; subject: `O=c1cc(-c2ccc(OCCOCCNCc3ccccc3)cc2)oc2ccccc12`
7.09

----------
assay.details: Negative allosteric modulator activity at human P-gp G1114V mutant expressed in HEK293FT cells assessed as reversal of P-gp mediated PTX resistance by measuring paclitaxel IC50 incubated for 5 days by MTS assay (Rvb = 3.4 +/- 0.5 nM)
quantity.kind: IC50 (nM)
The figure you give is taken to be in nM; do not add the unit.

Endpoint output: IC50 of `O=c1cc(-c2ccc(OCCOCCNCc3ccccc3)cc2)oc2ccccc12` . Value?
3.5

----------
assay.details: Negative allosteric modulator activity at human P-gp Q1193A mutant expressed in HEK293FT cells assessed as reversal of P-gp mediated PTX resistance by measuring paclitaxel IC50 incubated for 5 days by MTS assay (Rvb = 483.4 +/- 17.2 nM)
quantity.kind: pIC50
Friendly reminder that pIC50 comes from taking -log10 of the concentration in mol/L.

Reported pIC50 for `O=c1cc(-c2ccc(OCCOCCNCc3ccccc3)cc2)oc2ccccc12` : what is it?
6.95

----------
assay.details: Negative allosteric modulator activity at human P-gp Q1193K mutant expressed in HEK293FT cells assessed as reversal of P-gp mediated PTX resistance by measuring paclitaxel IC50 incubated for 5 days by MTS assay (Rvb = 466.2 +/- 72.3 nM)
quantity.kind: pIC50
In textbook form, pIC50 equals minus log to base ten of the concentration in mol/L.

Data request, read-out pIC50, for `O=c1cc(-c2ccc(OCCOCCNCc3ccccc3)cc2)oc2ccccc12`
7.32

----------
assay.details: Negative allosteric modulator activity at human P-gp G1114A mutant expressed in HEK293FT cells assessed as reversal of P-gp mediated PTX resistance by measuring paclitaxel IC50 incubated for 5 days by MTS assay (Rvb = 5.6 +/- 1.1 nM)
quantity.kind: pIC50
pIC50 is a log-scale quantity: -log10 of the concentration expressed in molar.

Returns the measured pIC50 for the input compound. Input: `O=c1cc(-c2ccc(OCCOCCNCc3ccccc3)cc2)oc2ccccc12`
8.37

----------
assay.details: Negative allosteric modulator activity at human P-gp Q1193C mutant expressed in HEK293FT cells assessed as reversal of P-gp mediated PTX resistance by measuring paclitaxel IC50 incubated for 5 days by MTS assay (Rvb = 359.4 +/- 22.3 nM)
quantity.kind: pIC50
Scale note: pIC50 = -log10(concentration in M).

Consider the molecule shown here: `O=c1cc(-c2ccc(OCCOCCNCc3ccccc3)cc2)oc2ccccc12` What is its recorded pIC50?
7.54

----------
assay.details: Negative allosteric modulator activity at P-gp in human LCC6MDR cells overexpressing P-gp assessed as reversal of P-gp mediated paclitaxel resistance activity incubated for 5 days by MTS assay
quantity.kind: EC50 (µM)
Entry rule: numbers only, all in µM.

• C#CCN(CCOCCOc1ccc(-c2cc(=O)c3ccccc3o2)cc1)Cc1ccc(C2(C(F)(F)F)N=N2)cc1 = 0.602

Which EC50 is reported for this compound? `[N-]=[N+]=NCc1cc(CNCCOCCOc2ccc(-c3cc(=O)c4ccccc4o3)cc2)cc(N=[N+]=[N-])c1`
0.11

And the next one, `C#CCNc1cc(C)cc2c(=O)cc(-c3ccc(OCCOCCNCc4ccc(C5(C(F)(F)F)N=N5)cc4)cc3)oc12` ?
0.733

Let us now turn to `O=c1cc(-c2ccc(OCCOCCNCc3ccc(C4(C(F)(F)F)N=N4)cc3)cc2)oc2ccccc12`
0.107

// next record `C#CCOc1cccc2oc(-c3ccc(OCCOCCNCc4ccc(C5(C(F)(F)F)N=N5)cc4)cc3)cc(=O)c12`
0.066

Quick one: `O=c1cc(-c2ccc(OCCOCCOCCOCCOc3ccc(-c4cc(=O)c5c(O)cc(O)cc5o4)cc3)cc2)oc2cc(O)cc(O)c12`
0.9

Then this compound: `O=c1cc(-c2ccc(OCCOCCN(Cc3ccc(C4(C(F)(F)F)N=N4)cc3)Cc3ccc(C4(C(F)(F)F)N=N4)cc3)cc2)oc2ccccc12`
3.01

Lookup `O=c1cc(-c2ccc(OCCOCCOCCOCCOc3ccc(-c4cc(=O)c5ccccc5o4)cc3)cc2)oc2ccccc12`
0.36

----------
assay.details: Negative allosteric modulator activity at human P-gp I1115M mutant expressed in HEK293FT cells assessed as reversal of P-gp mediated PTX resistance by measuring paclitaxel IC50 incubated for 5 days by MTS assay (Rvb = 9.8 +/- 0.9 nM)
quantity.kind: pIC50
Conceptually, pIC50 converts a concentration in mol/L into minus its log10.

Please give the measured pIC50 for this compound: `O=c1cc(-c2ccc(OCCOCCNCc3ccccc3)cc2)oc2ccccc12`
8.10

----------
assay.details: Negative allosteric modulator activity at human P-gp I1115N mutant expressed in HEK293FT cells assessed as reversal of P-gp mediated PTX resistance by measuring paclitaxel IC50 incubated for 5 days by MTS assay (Rvb = 10.2 +/- 1.6 nM)
quantity.kind: IC50 (nM)
Response body: numeric value in nM, unit text excluded.

Field request: IC50 | item: `O=c1cc(-c2ccc(OCCOCCNCc3ccccc3)cc2)oc2ccccc12`
9.9

----------
assay.details: Negative allosteric modulator activity at human P-gp T1226A mutant expressed in HEK293FT cells assessed as reversal of P-gp mediated PTX resistance by measuring paclitaxel IC50 incubated for 5 days by MTS assay (Rvb = 6.3 +/- 2.1 nM)
quantity.kind: IC50
Please state the number and follow it with the unit.

Fill in: IC50 of `O=c1cc(-c2ccc(OCCOCCNCc3ccccc3)cc2)oc2ccccc12` is ___
4.6 nM
